- System: interferon (α) (IFN-α)
- assay_overview: Cytokine induction in human cells: IFN-α secreted by PBMC into culture media (ELISA)
- Type: cell-based
- measurement_context: Table 10; maximal response in dose response curve; * = below experimental background level; median
- Experimental: Cytokine Induction in Human Cells An in vitro human blood cell system is used to assess cytokine induction. […] Following incubation the plates are centrifuged for 10 minutes at 1000 rpm (approximately 200×g) at 4° C. […] The samples are analyzed for IFN-α by ELISA and for TNF-α by IGEN/BioVeris Assay. […] IFN-α concentration is determined with a human multi-subtype calorimetric sandwich ELISA (Catalog Number 41105) from PBL Biomedical Laboratories, Piscataway, N.J. Results are expressed in pg/mL. […]
Mark 1 for Maximal Response (pg/mL) IFN under 1000 pg/mL, 0 if at or over.

Answered examples (4):
>>> print(df.to_string())
                                   compound             test_target  answer_label
0  COCCc1nc2c(N)nc3cc(-c4ccccc4)ccc3c2n1CCCN1CCCC1=O [Analog 21]  interferon (α) (IFN-α)             0
1  CCOCc1nc2c(N)nc3cc(-c4cccnc4)ccc3c2n1CC(C)(C)O [Analog 10]  interferon (α) (IFN-α)             1
2  CCc1nc2c(N)nc3cc(-c4cncc(CO)c4)ccc3c2n1CC(C)(C)O [Analog 15]  interferon (α) (IFN-α)             0
3  CCCNC(=O)NCCCCn1c(COCC)nc2c(N)nc3cc(-c4cccnc4)ccc3c21 [Analog 29]  interferon (α) (IFN-α)             1

As a next step, examine the compound that follows.
I wonder whether CCOCc1nc2c(N)nc3cc(-c4cncc(CO)c4)ccc3c2n1CC1CCCCC1 [Analog 45] has Maximal Response (pg/mL) IFN below 1000 pg/mL. Can you tell?
0

====

minimal effective concentration listing for selected molecules.
- Test system: interferon (α) (IFN-α)
- assay_overview: Cytokine induction in human cells: IFN-α secreted by PBMC into culture media (ELISA)
- Format: cell-based
- measurement_context: Table 10; human PBMC; lowest tested concentration inducing IFN-α over usually 20 pg/mL; median where more than one experiment; read-out: Minimum Effective Concentration (μM) IFN
Write it as a number; the unit µM goes unstated.

Field: example entries. Status: answers known.
In [3]: df
Out[3]:
                               query_smiles               parameter_measured  observed
0  CCOCc1nc2c(N)nc3cc(-c4cccc(C(=O)N5CCOCC5)c4)ccc3c2n1CC1CCCCC1  minimal effective concentration     0.014
1  CCOCc1nc2c(N)nc3cc(-c4cccnc4)ccc3c2n1CC1CCN(C(=O)C(C)C)CC1  minimal effective concentration      0.12
2  CCOCc1nc2c(N)nc3cc(-c4cncc(CO)c4)ccc3c2n1CC1CCCCC1  minimal effective concentration     0.014
3  CCCC(=O)NCCCCn1c(COCC)nc2c(N)nc3cc(-c4cccnc4)ccc3c21  minimal effective concentration      0.12
4  CCOCc1nc2c(N)nc3cc(-c4cccnc4)ccc3c2n1CCCCNC(=O)NC1CCCC1  minimal effective concentration     0.014

Entry under review: COCCc1nc2c(N)nc3cc(-c4cncc(CO)c4)ccc3c2n1CC(C)(C)O . Reported minimal effective concentration?
0.014

Which minimal effective concentration value is on record for CCc1nc2c(N)nc3cc(-c4cncc(CO)c4)ccc3c2n1CC(C)(C)O ?
0.014

Reported minimal effective concentration for CCOCc1nc2c(N)nc3cc(-c4ccc(C)cc4)ccc3c2n1CC(C)(C)O : what is it?
0.12

What value of measured minimal effective concentration is listed for CCCC(=O)NCCCCn1c(CO)nc2c(N)nc3cc(-c4cccnc4)ccc3c21 ?
0.12

Any idea what its minimal effective concentration is? The molecule is COCCc1nc2c(N)nc3cc(-c4cccnc4)ccc3c2n1CC(C)C
0.014

Quick check: minimal effective concentration of CCCc1nc2c(N)nc3cc(-c4cccnc4)ccc3c2n1CCCCNC(=O)C1CCCC1 ?
0.12

Which minimal effective concentration is reported for this molecule? CCOCc1nc2c(N)nc3cc(-c4cccc(O)c4)ccc3c2n1CC(C)(C)O
0.04

Could you share which minimal effective concentration value was measured for COCCc1nc2c(N)nc3cc(-c4ccccc4)ccc3c2n1CC(C)(C)O ?
0.014

Given COCCc1nc2c(N)nc3cc(-c4cccnc4)ccc3c2n1CC(C)(C)O , state its recorded minimal effective concentration.
0.014

Fill in: minimal effective concentration of CC(C)(O)Cn1c(CO)nc2c(N)nc3cc(-c4cccc(O)c4)ccc3c21 is ___
0.37

Request the reported minimal effective concentration associated with CC(C)(O)Cn1c(CO)nc2c(N)nc3cc(-c4cccnc4)ccc3c21
0.37

Item under review: COCCc1nc2c(N)nc3cc(-c4cccnc4)ccc3c2n1CCCN1CCCC1=O . Reported minimal effective concentration?
0.12

# get_value(readout='minimal effective concentration', item= CCOCc1nc2c(N)nc3cc(-c4cccnc4)ccc3c2n1CCCCNC(=O)C(C)C )
0.12

====

Reported Minimum Effective Concentration IFN values are given for each entry in this list.
- Test system: interferon (α) (IFN-α)
- assay_overview: Cytokine induction in human cells: IFN-α secreted by PBMC into culture media (ELISA)
- Assay type: cell-based
- measurement_context: Table 11; human PBMC; median where tested in more than one experiment

Here are 3 molecules together with their reported answers.
>>> df
                                   molecule                   parameter_measured  observed
0  COCCc1nc2c(N)nc3ccccc3c2n1CC(C)(C)CNC(=O)Nc1ccccc1 [Analog 92]  Minimum Effective Concentration IFN  0.014 µM
1  CCNC(=O)NCCn1c(CC)nc2c(N)nc3ccccc3c21 [Analog 103]  Minimum Effective Concentration IFN   3.33 µM
2  Cc1nc2c(N)nc3ccccc3c2n1CCCCNC(=O)N1CCOCC1 [Analog 53]  Minimum Effective Concentration IFN   0.12 µM

Field request: Minimum Effective Concentration IFN | item: Cc1nc2c(N)nc3ccccc3c2n1CCCN [Analog 84]
3.33 µM

Which Minimum Effective Concentration IFN is reported for this molecule? COCCc1nc2c(N)nc3ccccc3c2n1CCOCCN(C)S(C)(=O)=O [Analog 80]
0.014 µM

Tell me the measured Minimum Effective Concentration IFN of CCCc1nc2c(N)nc3ccccc3c2n1CCCCNS(C)(=O)=O [Analog 50] , please.
0.12 µM

Need Minimum Effective Concentration IFN, item Nc1nc2ccccc2c2c1nc(CCO)n2CCCCCCCCNC(=O)c1ccccc1 [Example 121]
0.37 µM

====

- Tested on: interferon (α) (IFN-α)
- assay_overview: Cytokine induction in human cells: IFN-α secreted by PBMC into culture media (ELISA)
- Format: cell-based
- measurement_context: Table 11; human PBMC; median where tested in more than one experiment
- Description: Cytokine Induction in Human Cells An in vitro human blood cell system is used to assess cytokine induction. […] Following incubation the plates are centrifuged for 10 minutes at 1000 rpm (approximately 200×g) at 4° C. […] The samples are analyzed for IFN-α by ELISA and for TNF-α by IGEN/BioVeris Assay. […] IFN-α concentration is determined with a human multi-subtype calorimetric sandwich ELISA (Catalog Number 41105) from PBL Biomedical Laboratories, Piscataway, N.J. Results are expressed in pg/mL. […]
parameter_measured: Minimum Effective Concentration IFN (µM)
Return type: number; implicit unit µM.

Some solved entries appear below for comparison.
                               query_smiles                   parameter_measured  units_of_measure  observed
0  CS(=O)(=O)CCCCCn1c(CCO)nc2c(N)nc3ccccc3c21  Minimum Effective Concentration IFN                µM      0.37
1  COCCc1nc2c(N)nc3ccccc3c2n1CC(C)(C)CNS(C)(=O)=O  Minimum Effective Concentration IFN                µM     0.014
2  CCCCNC(=O)NCCCn1c(CCOC)nc2c(N)nc3ccccc3c21  Minimum Effective Concentration IFN                µM     0.014

Bench note: what Minimum Effective Concentration IFN did COCCc1nc2c(N)nc3ccccc3c2n1CCCNS(C)(=O)=O show?
0.014

Which value of Minimum Effective Concentration IFN has been reported for COCCc1nc2c(N)nc3ccccc3c2n1CCCNC(=O)NC(C)C in the records?
0.12

Request the reported Minimum Effective Concentration IFN associated with COCOCc1nc2c(N)nc3ccccc3c2n1CC(C)(C)CNC(=O)c1ccccc1
0.04

Please report the recorded Minimum Effective Concentration IFN for Cc1nc2c(N)nc3ccccc3c2n1CCCNC(=O)N1CCOCC1 .
0.37

Could you tell me which Minimum Effective Concentration IFN is on file for CCc1nc2c(N)nc3ccccc3c2n1CCCCNC(=O)N1CCOCC1 ?
0.37

Name the recorded Minimum Effective Concentration IFN for COCCc1nc2c(N)nc3ccccc3c2n1CCCNS(=O)(=O)c1ccc(C)cc1 .
0.04
